Experiment: Drug metabolism experiment on prodrug in SD rats: concentration in liver compared with blood
Assay type: in vivo
Details: male, Sprague-Dawley (SD), rat, liver, po, 3 mg/kg, 1 h, SD rats, oral 3 mg/kg Compound 10; read-out: Ct Liver
In this section we review reported concentration at 1 h values for a set of compounds.
Numeric answer only, unit ng/g assumed.

Cc1cc(OCP(=O)(O)O)cc(C)c1Cc1ccc(O)c2c1CCC2(C)C	693

Please turn your attention to the following entry.
*Q* Specify measured concentration at 1 h for Cc1cc(OC[P@@]2(=O)OCC[C@@H](c3cccc(Cl)c3)O2)cc(C)c1Cc1ccc(O)c2c1CCC2(C)C .
*A* 141

###

In this section we review reported EC50 values for a set of compounds.
Target: THR-β (Homo sapiens, UniProt P10828)
Construct: TRB LBD, GST purchased from Thermo Fisher
Sequence (P10828 217-461 limits assumed, other chains not shown): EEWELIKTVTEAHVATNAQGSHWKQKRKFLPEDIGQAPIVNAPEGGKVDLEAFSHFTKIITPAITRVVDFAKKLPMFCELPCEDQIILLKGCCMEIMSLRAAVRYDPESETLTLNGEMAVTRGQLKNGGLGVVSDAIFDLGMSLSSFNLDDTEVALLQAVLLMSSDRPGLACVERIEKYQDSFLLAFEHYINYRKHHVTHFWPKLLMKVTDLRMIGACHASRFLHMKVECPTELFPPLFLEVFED
Sequence (P28702 whole entry partner, other chains not shown, the tested form may be a part): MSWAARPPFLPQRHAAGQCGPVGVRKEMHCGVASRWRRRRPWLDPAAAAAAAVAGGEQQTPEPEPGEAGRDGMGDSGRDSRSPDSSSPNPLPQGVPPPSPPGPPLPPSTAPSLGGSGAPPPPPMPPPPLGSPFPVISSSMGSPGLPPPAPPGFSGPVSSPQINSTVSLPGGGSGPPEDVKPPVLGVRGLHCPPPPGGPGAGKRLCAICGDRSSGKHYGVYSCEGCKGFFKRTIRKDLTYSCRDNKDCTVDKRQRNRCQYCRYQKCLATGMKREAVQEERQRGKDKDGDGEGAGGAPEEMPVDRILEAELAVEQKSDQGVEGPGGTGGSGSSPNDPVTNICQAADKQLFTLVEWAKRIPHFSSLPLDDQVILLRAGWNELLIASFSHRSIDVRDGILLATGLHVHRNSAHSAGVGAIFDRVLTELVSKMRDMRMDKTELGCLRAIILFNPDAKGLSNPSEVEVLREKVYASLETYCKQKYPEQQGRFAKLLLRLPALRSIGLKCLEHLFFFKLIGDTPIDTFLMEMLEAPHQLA
Experiment: Test of the binding ability of the compound to TRβ (TRβ LBD/RXR, biotin-SRC2-2 co-activating peptide, 665/615 nm fluorescence ratio)
Numeric answer only, unit nM assumed.

Cc1cc(OCP(=O)(O)O)cc(C)c1Cc1ccc(O)c2c1CCCC2(C)C [Compound 3]	104
Cc1cc(OCP(=O)(O)O)cc(C)c1Cc1ccc(O)c2c1CCC2(C)C [Compound 1]	12
Cc1cc(OCP(=O)(O)O)cc(C)c1Cc1ccc(O)c(C(C)C)c1 [MB07444, reference compound]	33
Cc1cc(OCP(=O)(O)O)cc(C)c1Cc1ccc(O)c2c1CCCC2 [B, reference compound]	41
CC1(C)CCc2c(Cc3c(Cl)cc(OCP(=O)(O)O)cc3Cl)ccc(O)c21 [Compound 6]	108

*Q* Specify measured EC50 for Cc1cc(OCP(=O)(O)O)cc(C)c1Cc1ccc(O)c2ccccc12 [A, reference compound] .
*A* 109

###

Assay: Drug metabolism experiment on prodrug in SD rats: plasma pharmacokinetic parameters
Assay type: in vivo
Conditions: male, Sprague-Dawley (SD), rat, plasma, po, 3 mg/kg, oral 3 mg/kg Compound 9
endpoint.name: Tmax (h)
Numeric answer only, unit h assumed.

*Q* Specify measured Tmax for Cc1cc(OCP(=O)(O)O)cc(C)c1Cc1ccc(O)c2c1CCC2(C)C .
*A* 4.67

###

Target: THR-α (Homo sapiens)
Construct: TR-a LBD, GST purchased from Thermo Fisher
Sequence (P10827 163-410 isoform P10827-2 limits assumed, other chains not shown): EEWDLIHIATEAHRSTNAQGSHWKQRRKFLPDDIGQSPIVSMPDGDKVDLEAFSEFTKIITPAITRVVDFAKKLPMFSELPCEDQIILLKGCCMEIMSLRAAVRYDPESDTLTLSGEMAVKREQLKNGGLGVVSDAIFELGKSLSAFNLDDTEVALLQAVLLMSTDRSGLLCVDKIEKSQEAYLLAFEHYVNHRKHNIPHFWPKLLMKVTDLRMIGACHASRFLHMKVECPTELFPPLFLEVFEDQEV
Sequence (P19793 whole entry partner, other chains not shown, the tested form may be a part): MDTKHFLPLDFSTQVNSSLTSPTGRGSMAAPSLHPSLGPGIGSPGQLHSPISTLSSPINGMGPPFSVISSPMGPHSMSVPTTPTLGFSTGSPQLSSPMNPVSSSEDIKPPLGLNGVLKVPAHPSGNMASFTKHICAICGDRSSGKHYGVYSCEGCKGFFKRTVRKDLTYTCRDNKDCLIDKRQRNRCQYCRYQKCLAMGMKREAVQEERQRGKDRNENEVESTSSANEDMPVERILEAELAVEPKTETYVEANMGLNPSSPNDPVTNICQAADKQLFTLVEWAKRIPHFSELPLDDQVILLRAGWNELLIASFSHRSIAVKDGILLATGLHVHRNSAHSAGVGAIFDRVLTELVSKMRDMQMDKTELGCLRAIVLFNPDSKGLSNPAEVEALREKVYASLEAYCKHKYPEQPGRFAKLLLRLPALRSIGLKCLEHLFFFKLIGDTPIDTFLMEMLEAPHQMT
Experiment: Test of the binding ability of the compound to TRα (TRα LBD/RXRα, biotin-SRC2-2 co-activating peptide, 665/615 nm fluorescence ratio)
endpoint.name: EC50

Cc1cc(OCP(=O)(O)O)cc(C)c1Cc1ccc(O)c2c1CCCCC2(C)C	> 10000 nM

*Q* Specify measured EC50 for Cc1cc(OCP(=O)(O)O)cc(C)c1Oc1ccc(O)c2c1CCC2(C)C .
*A* < 200 nM

*Q* Specify measured EC50 for Cc1cc(OCP(=O)(O)O)cc(C)c1Cc1ccc(O)c2c1CCC2C (stereo not drawn) .
*A* < 200 nM

###

Target: THR-β (Homo sapiens, UniProt P10828)
Construct: TRB LBD, GST purchased from Thermo Fisher
Experiment: Test of the binding ability of the compound to TRβ (TRβ LBD/RXR, biotin-SRC2-2 co-activating peptide, 665/615 nm fluorescence ratio)
pEC50: −log10 of the molar value.
In this section we review reported pEC50 values for a set of compounds.

// solved cases for pEC50 follow
Cc1cc(OCP(=O)(O)O)cc(C)c1Cc1ccc(O)c2c1CCC2C (stereo not drawn)	> 7.00
Cc1cc(OCP(=O)(O)O)cc(C)c1Oc1ccc(O)c2c1CCC2(C)C	> 7.00

Please turn your attention to the following entry.
*Q* Specify measured pEC50 for Cc1cc(OCP(=O)(O)O)cc(C)c1Cc1ccc(O)c2c1CCCCC2(C)C .
*A* < 6.00
